Hello, the source for this data is PubChem BioAssay AID687016, in case you need it.

Biological target: E3 ubiquitin-protein ligase UHRF1 (Homo sapiens) (UniProt Q96T88)
Sequence (Q96T88 whole entry, looked up, the tested form may be a part): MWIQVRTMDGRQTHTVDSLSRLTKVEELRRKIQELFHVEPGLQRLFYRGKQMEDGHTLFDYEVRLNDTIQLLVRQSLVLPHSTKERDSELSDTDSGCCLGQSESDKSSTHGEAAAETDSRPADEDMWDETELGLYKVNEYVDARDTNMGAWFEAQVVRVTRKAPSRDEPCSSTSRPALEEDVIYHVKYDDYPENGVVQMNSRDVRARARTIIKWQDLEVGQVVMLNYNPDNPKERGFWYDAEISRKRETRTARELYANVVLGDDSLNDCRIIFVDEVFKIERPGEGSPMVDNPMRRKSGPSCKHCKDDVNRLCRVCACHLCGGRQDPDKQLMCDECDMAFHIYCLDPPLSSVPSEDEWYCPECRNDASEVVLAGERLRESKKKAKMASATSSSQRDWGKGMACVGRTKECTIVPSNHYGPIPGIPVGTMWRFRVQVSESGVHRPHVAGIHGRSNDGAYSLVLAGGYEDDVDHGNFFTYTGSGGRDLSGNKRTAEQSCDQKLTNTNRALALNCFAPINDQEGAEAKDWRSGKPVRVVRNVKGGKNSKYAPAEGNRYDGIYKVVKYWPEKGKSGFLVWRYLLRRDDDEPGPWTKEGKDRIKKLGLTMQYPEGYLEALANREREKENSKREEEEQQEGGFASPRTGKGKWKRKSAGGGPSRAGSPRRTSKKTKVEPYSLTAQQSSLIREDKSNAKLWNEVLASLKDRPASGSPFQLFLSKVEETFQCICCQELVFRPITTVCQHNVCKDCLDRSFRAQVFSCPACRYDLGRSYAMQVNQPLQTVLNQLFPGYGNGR
Assay: blockers of UHRF1 binding to methyl-oligo – biochemical, TR-FRET, human UHRF1, single concentration, counter-screen for MBD2 inhibitor project, primary screen (AID 687016);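 also: UHRF1 SRA domain binding a hemimethylated CpG hairpin DNA probe; 0% = median of test compound wells and 100% = reference inhibitor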
Conditions: UHRF1 binding to methylated oligo, at 4.4 µM, stronger effect = higher value
The campaign covered roughly 370,000 compounds. About 2,800 (0.76%) were called active. The full list was thinned out, with actives kept by preference.
result_type: inhibition (%)
Kindly answer with a numeric value in %, unit omitted.

IN: So what does the record say about inhibition for COc1cccc(NC(=O)c2cc(S(=O)(=O)N3CCc4ccccc43)cn2C)c1 ?
OUT: -1

# next compound below
IN: So what does the record say about inhibition for CN(C)[C@H]1CCN(c2cccc3c2S(=O)(=O)N2CC[C@H](C2)O3)C1 ?
OUT: -0.6

---

Molecular target: E3 ubiquitin-protein ligase UHRF1 (Homo sapiens) (UniProt Q96T88)
Test: blockers of UHRF1 binding to methyl-oligo – biochemical, TR-FRET, human UHRF1, single concentration, counter-screen for MBD2 inhibitor project, primary screen (AID 687016);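 also: UHRF1 SRA domain binding a hemimethylated CpG hairpin DNA probe; 0% = median of test compound wells and 100% = reference inhibitor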
Conditions: UHRF1 binding to methylated oligo, at 4.4 µM, stronger effect = higher value
About 2,800 (0.76%) of roughly 370,000 compounds were called active. The entries come from a sample that favours actives as a whole.
As shown below, each of these molecules has a reported inhibition value.

IN: So what does the record say about inhibition for O=C(CNC(=O)c1ccccc1F)OCC(=O)c1c[nH]c2ccccc12 ?
OUT: -1.49% (inactive)

IN: So what does the record say about inhibition for Brc1ccc2nc(-c3ccccc3)c(Cc3ccccc3)n2c1 ?
OUT: 11% (inactive)

IN: So what does the record say about inhibition for COc1ccc(-n2c(SCC(=O)Nc3ccccc3-c3ccccc3)nnc2-c2cccnc2)cc1 ?
OUT: 1.25% (inactive)

IN: So what does the record say about inhibition for CCN(CC)CCOc1ccc2c(c1)C(=NNC(=O)c1ccccn1)c1cc(OCCN(CC)CC)ccc1-2 ?
OUT: 105% (active)

IN: So what does the record say about inhibition for CCCCCN1CCCCC(NC(=O)C(C)CCC)C1=O (stereo unspecified) ?
OUT: -0.32% (inactive)

IN: So what does the record say about inhibition for COCCNC(=O)Nc1ccc2nc(-c3ccco3)c(-c3ccco3)nc2c1 ?
OUT: 91.1% (active)

IN: So what does the record say about inhibition for C[C@H]1CN([C@@H](C)CO)S(=O)(=O)c2ccc(-c3cccc(F)c3)cc2O[C@@H]1CN(C)C ?
OUT: 0.38% (inactive)

IN: So what does the record say about inhibition for Cc1cccc(C(=O)Nc2c(-c3ccc(F)cc3)nc3ncccn23)c1 ?
OUT: -2.59% (inactive)

IN: So what does the record say about inhibition for COc1ccccc1Cc1c(-c2ccc(F)cc2)nc2ccc(C)cn12 ?
OUT: 11.5% (inactive)

IN: So what does the record say about inhibition for COC(=O)c1ccc2nc(-c3ccc(C)cc3)c(Cc3ccc(OC)cc3C)n2c1 ?
OUT: 21.6% (active)

IN: So what does the record say about inhibition for CCCC(C(=O)OCCN(CC)CC)(c1ccccc1)c1ccccc1 ?
OUT: 0% (inactive)

IN: So what does the record say about inhibition for Cc1ccc(-c2nc3ccc(Br)cn3c2Cc2ccccc2C(F)(F)F)cc1 ?
OUT: 2.47% (inactive)

IN: So what does the record say about inhibition for O=C(CSc1nc2ccccc2s1)N=Nc1c(O)[nH]c2ccccc12 ?
OUT: -3.32% (inactive)

IN: So what does the record say about inhibition for CC[C@@H](CCC(=O)N(c1ccccc1)c1ccccc1)C1CC1 ?
OUT: 1.36% (inactive)

IN: So what does the record say about inhibition for OC(CN1C2=NCCCN2c2ccccc21)c1ccc(Br)cc1 (stereo unspecified) ?
OUT: 68.9% (active)

IN: So what does the record say about inhibition for COC(=O)c1ccc2nc(C3CCCCC3)c(Cc3cccc(F)c3)n2c1 ?
OUT: 27.9% (active)

IN: So what does the record say about inhibition for CC(CCN1CCC(C(O)(c2ccccc2)c2ccccc2)CC1)Oc1ccc([N+](=O)[O-])cc1Cl (stereo unspecified) ?
OUT: -2.34% (inactive)

IN: So what does the record say about inhibition for CC(C)CNc1cccc2c1S(=O)(=O)N(Cc1cn(Cc3ccccc3C(F)(F)F)nn1)Cc1ccccc1O2 ?
OUT: 1.83% (inactive)

IN: So what does the record say about inhibition for COC(=O)[C@@]12CCCCC=C1N(CCc1ccc(Cl)cc1)C(=O)[C@H]2CC(=O)NCc1ccc(OC)c(OC)c1 ?
OUT: 0.86% (inactive)

IN: So what does the record say about inhibition for CCOC(=O)c1ccn(-c2nc(-c3ccco3)cc(C(F)(F)F)n2)n1 ?
OUT: 1.45% (inactive)

IN: So what does the record say about inhibition for CC(C)(C)NC(=O)NC(=O)CN1CCC(Cc2ccccc2)CC1 ?
OUT: 38.1% (active)
